target: Carbonic anhydrase 9 (Homo sapiens, UniProt Q16790); test: Inhibition of recombinant human […] assessed as inhibition constant preincubated for 15 mins by phenol red dye based stopped-flow CO2 hydration assay
measure-name: Ki (nM)

[A] NS(=O)(=O)c1cccc(-c2ccc(-c3cccc4ccccc34)cc2)c1
[B] Cc1cc(-c2ccc(S(N)(=O)=O)cc2)cnc1-c1ccnc2ccccc12
Inquiry: Quick check, higher Ki between A and B ? Identify your pick by its label.
Reply text: A
(A: 331 nM, B: 167 nM)

[P] Cc1cc(-c2ccc(S(N)(=O)=O)s2)ccc1-c1cccc2ncccc12
[Q] NS(=O)(=O)c1ccc(-c2ccc(-c3cccc4ncccc34)cc2)cc1
Inquiry: Quick check, higher Ki between P and Q ? Identify your pick by its label.
Reply text: Q
(Q: 72.1 nM, P: 27.2 nM)

[I] Cc1cc(-c2cccc(S(N)(=O)=O)c2)ccc1-c1cccc2ccccc12
[II] Cc1cc(-c2ccc(S(N)(=O)=O)s2)ccc1-c1cccc2ccccc12
Inquiry: Quick check, higher Ki between I and II ? Identify your pick by its label.
Reply text: I
(I: 86.2 nM, II: 29.3 nM)

---

biological target: Carbonic anhydrase 12 (Homo sapiens, UniProt O43570); assay: Inhibition of recombinant human CA XII (30 to 291 residues) expressed in escherichia coli BL21 assessed as inhibition constant preincubated for 15 mins by phenol red dye based stopped-flow CO2 hydration assay
Sequence (O43570 whole entry, the tested form may be a part): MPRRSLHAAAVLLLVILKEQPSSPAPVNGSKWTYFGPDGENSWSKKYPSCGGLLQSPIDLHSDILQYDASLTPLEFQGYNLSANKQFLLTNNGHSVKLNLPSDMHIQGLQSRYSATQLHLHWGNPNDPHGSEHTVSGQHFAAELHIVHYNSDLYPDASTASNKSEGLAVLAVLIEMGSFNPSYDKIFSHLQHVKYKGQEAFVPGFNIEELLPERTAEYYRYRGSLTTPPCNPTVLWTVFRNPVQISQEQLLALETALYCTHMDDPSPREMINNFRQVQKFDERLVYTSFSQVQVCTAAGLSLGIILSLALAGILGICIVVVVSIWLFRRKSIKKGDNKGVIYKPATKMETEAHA
measure-name: Ki (nM)

# molecule, assayed-target, measurement-unit, Ki
rows = [
    ("Cc1cc(-c2ccc(S(N)(=O)=O)s2)cnc1-c1cccc2ccccc12", "Carbonic anhydrase 12 (Homo sapiens, UniProt O43570)", "nM", 212),
    ("Cc1cc(-c2ccc(S(N)(=O)=O)cc2)cnc1-c1ccnc2ccccc12", "Carbonic anhydrase 12 (Homo sapiens, UniProt O43570)", "nM", 247),
    ("Cc1cc(-c2ccc(S(N)(=O)=O)cc2)ccc1-c1cccc2ccccc12", "Carbonic anhydrase 12 (Homo sapiens, UniProt O43570)", "nM", 808),
    ("NS(=O)(=O)c1ccc(-c2ccc(-c3cccc4ncccc34)cc2)cc1", "Carbonic anhydrase 12 (Homo sapiens, UniProt O43570)", "nM", 552),
]

[1] Cc1cc(-c2ccc(S(N)(=O)=O)s2)ccc1-c1cccc2ccccc12
[2] Cc1cc(-c2cccc(S(N)(=O)=O)c2)cnc1-c1ccnc2ccccc12
Inquiry: Lowest Ki? choose 1 or 2 Identify your pick by its label.
Reply text: 1

---

target: UniProtKB P00915; assay: Inhibition of recombinant human CA1 assessed as inhibition constant preincubated for 15 mins by phenol red dye based stopped-flow CO2 hydration assay
Sequence (P00915 whole entry): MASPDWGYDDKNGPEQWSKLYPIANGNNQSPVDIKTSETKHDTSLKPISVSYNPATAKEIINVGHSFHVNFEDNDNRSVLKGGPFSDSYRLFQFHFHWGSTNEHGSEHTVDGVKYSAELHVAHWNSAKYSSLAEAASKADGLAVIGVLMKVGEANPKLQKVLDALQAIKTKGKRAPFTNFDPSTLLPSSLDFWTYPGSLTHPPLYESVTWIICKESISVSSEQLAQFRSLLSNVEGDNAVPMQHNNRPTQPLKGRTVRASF
measure-name: Ki (µM)

As a guide, the following entries are already answered.
# molecule, assayed-target, Ki (µM)
records = [
    ("NS(=O)(=O)c1cccc(-c2ccc(-c3cccc4ccccc34)cc2)c1", "UniProtKB P00915", 0.698),
    ("Cc1cc(-c2ccc(S(N)(=O)=O)s2)ccc1-c1ccnc2ccccc12", "UniProtKB P00915", 0.0356),
    ("NS(=O)(=O)c1ccc(-c2ccc(-c3cccc4ncccc34)cc2)s1", "UniProtKB P00915", 0.0845),
]

[1] NS(=O)(=O)c1ccc(-c2ccc(-c3cccc4ccccc34)cc2)s1
[2] Cc1cc(-c2ccc(S(N)(=O)=O)cc2)ccc1-c1cccc2ccccc12
Inquiry: Quick check, higher Ki between 1 and 2 ? Identify your pick by its label.
Reply text: 1

[a] Cc1cc(-c2ccc(S(N)(=O)=O)cc2)cnc1-c1ccnc2ccccc12
[b] NS(=O)(=O)c1ccc(-c2ccc(-c3cccc4ncccc34)cc2)cc1
Inquiry: Quick check, higher Ki between a and b ? Identify your pick by its label.
Reply text: b
(b: 0.0858 µM, a: 0.0489 µM)
